METHOD SUMMARY: Food effect, fed versus fasted crossover (Cohort 4)
EXPERIMENTAL CONTEXT: human, plasma, oral, 100 mg, AUC(0-∞), 100 MG FASTED, coated tablet, PART B
OUTCOME MEASURE: AUC(0-inf) (ng·h/mL)

>>> reported_measurement("Nc1nc(=O)n(C2C=CC(CO)O2)cc1F [β-D-D4FC]")
6170

* * *

Test system: HepG2 cells
METHOD SUMMARY: Mitochondrial toxicity testing (mitDNA, rRNA, lactic acid)
Format: cell-based
EXPERIMENTAL CONTEXT: 1 μM, 14 days
OUTCOME MEASURE: % Change in mitDNA (%)

>>> reported_measurement("Nc1ccn([C@@H]2CS[C@H](CO)O2)c(=O)n1")
0
>>> reported_measurement("Nc1nc(=O)n(C2C=CC(CO)O2)cc1F (stereo not shown)")
0
>>> reported_measurement("Nc1ccn([C@H]2CC[C@@H](CO)O2)c(=O)n1")
"−99.7"
>>> reported_measurement("Nc1nc(=O)n([C@H]2C=C[C@@H](CO)O2)cc1F")
"−15"

* * *

METHOD SUMMARY: clinical
EXPERIMENTAL CONTEXT: male, human, in vivo, 50 mg, AUC Actual
Experimental: Total of 18 HIV-1 infected males, aged 18-55 years, enrolled, 6 per treatment cohort. In Cohort 3, subjects received either 100 mg, or 200 mg, or placebo. The data was analyzed using non-compartmental and two-compartmental models. HIV RNA levels were also determined using quantitative real-time RT-PCR. […]
OUTCOME MEASURE: AUC (µM·h)

>>> reported_measurement("Nc1nc(=O)n(C2C=CC(CO)O2)cc1F (stereo not shown)")
27

* * *

TARGET OR TEST SYSTEM: HIV RT (Human immunodeficiency virus type 1 group M subtype B, UniProt P04585)
Construct: purified HIV-1 reverse transcriptase (RT)
METHOD SUMMARY: Inhibition of purified HIV-1 reverse transcriptase by nucleoside triphosphates (tritiated dCTP incorporation)
Assay type: biochemical
EXPERIMENTAL CONTEXT: pure polymerase, tritiated dCTP incorporation; read-out: IC50
OUTCOME MEASURE: IC50 (nM)

>>> reported_measurement("Nc1ccn([C@@H]2CS[C@H](COP(=O)(O)OP(=O)(O)OP(=O)(O)O)O2)c(=O)n1 [3TC-TP]")
570
>>> reported_measurement("Nc1nc(=O)n([C@H]2C=C[C@@H](COP(=O)(O)OP(=O)(O)OP(=O)(O)O)O2)cc1F [β-D-D4FC-TP]")
140

* * *

METHOD SUMMARY: clinical
EXPERIMENTAL CONTEXT: male, human, in vivo, po, 200 mg, Tmax
OUTCOME MEASURE: Tmax (h)

>>> reported_measurement("Nc1nc(=O)n(C2C=CC(CO)O2)cc1F [β-D-D4FC]")
3.3

* * *

METHOD SUMMARY: clinical
EXPERIMENTAL CONTEXT: male, human, in vivo, 200 mg, CLr
OUTCOME MEASURE: CL renal (mL/min)

>>> reported_measurement("Nc1nc(=O)n(C2C=CC(CO)O2)cc1F [β-D-D4FC]")
125

* * *

METHOD SUMMARY: clinical
EXPERIMENTAL CONTEXT: male, human, in vivo, 50 mg, Cmax
OUTCOME MEASURE: Cmax (ng/mL)

>>> reported_measurement("Nc1nc(=O)n(C2C=CC(CO)O2)cc1F (stereo not shown)")
668

* * *

METHOD SUMMARY: clinical
EXPERIMENTAL CONTEXT: male, human, in vivo, 10 mg, t1/2 λz
OUTCOME MEASURE: half-life (h)

>>> reported_measurement("Nc1nc(=O)n(C2C=CC(CO)O2)cc1F [β-D-D4FC]")
4.2

* * *

METHOD SUMMARY: clinical
EXPERIMENTAL CONTEXT: male, human, in vivo, 25 mg, Cmax Actual
OUTCOME MEASURE: Cmax

>>> reported_measurement("Nc1nc(=O)n(C2C=CC(CO)O2)cc1F (stereo not shown)")
"1800 nM"

* * *

METHOD SUMMARY: clinical
EXPERIMENTAL CONTEXT: male, human, in vivo, 10 mg, tmax
OUTCOME MEASURE: Tmax

>>> reported_measurement("Nc1nc(=O)n(C2C=CC(CO)O2)cc1F [β-D-D4FC]")
"1 h"

* * *

METHOD SUMMARY: clinical
EXPERIMENTAL CONTEXT: male, human, in vivo, 200 mg, t1/2 λz
OUTCOME MEASURE: half-life (min)

>>> reported_measurement("Nc1nc(=O)n(C2C=CC(CO)O2)cc1F (stereo not shown)")
655

* * *

METHOD SUMMARY: clinical
EXPERIMENTAL CONTEXT: male, human, in vivo, 10 mg, Cmax Actual
OUTCOME MEASURE: Cmax

>>> reported_measurement("Nc1nc(=O)n(C2C=CC(CO)O2)cc1F (stereo not shown)")
"870 nM"

* * *

METHOD SUMMARY: clinical
EXPERIMENTAL CONTEXT: male, human, in vivo, po, 25 mg, Tmax
OUTCOME MEASURE: Tmax (h)

>>> reported_measurement("Nc1nc(=O)n(C2C=CC(CO)O2)cc1F (stereo not shown)")
1.4

* * *

TARGET OR TEST SYSTEM: M184V mutant RT (Human immunodeficiency virus type 1 group M subtype B, UniProt P04585, M771V)
METHOD SUMMARY: biochemical
Assay type: biochemical, HIV-1
EXPERIMENTAL CONTEXT: read-out: Ki M184V
pKi: −log10 of the molar value.
Each entry below lists one item and its recorded pKi value.
OUTCOME MEASURE: pKi

>>> reported_measurement("Nc1nc(=O)n([C@H]2C=C[C@@H](COP(=O)(O)OP(=O)(O)OP(=O)(O)O)O2)cc1F")
6.52
>>> reported_measurement("Nc1ccn([C@@H]2CS[C@H](COP(=O)(O)OP(=O)(O)OP(=O)(O)O)O2)c(=O)n1")
4.07

* * *

METHOD SUMMARY: clinical
EXPERIMENTAL CONTEXT: male, human, in vivo, po, 100 mg, T ½
Protocol: Total of 18 HIV-1 infected males, aged 18-55 years, enrolled, 6 per treatment cohort. In Cohort 3, subjects received either 100 mg, or 200 mg, or placebo. The data was analyzed using non-compartmental and two-compartmental models. HIV RNA levels were also determined using quantitative real-time RT-PCR. […]
OUTCOME MEASURE: half-life

>>> reported_measurement("Nc1nc(=O)n(C2C=CC(CO)O2)cc1F (stereo not shown)")
"11.3 h"

* * *

METHOD SUMMARY: Cytotoxicity, MTT reduction
Assay type: cell-based
EXPERIMENTAL CONTEXT: hamster, BHK-21 cells, read-out: TC50
OUTCOME MEASURE: CC50 at 30 h

>>> reported_measurement("Nc1nc(=O)n(C2C=CC(CO)O2)cc1F (stereo not shown)")
"> 30 µM"

* * *

TARGET OR TEST SYSTEM: DNA Pol γ (Homo sapiens, UniProt P54098)
Sequence (P54098 1-1239): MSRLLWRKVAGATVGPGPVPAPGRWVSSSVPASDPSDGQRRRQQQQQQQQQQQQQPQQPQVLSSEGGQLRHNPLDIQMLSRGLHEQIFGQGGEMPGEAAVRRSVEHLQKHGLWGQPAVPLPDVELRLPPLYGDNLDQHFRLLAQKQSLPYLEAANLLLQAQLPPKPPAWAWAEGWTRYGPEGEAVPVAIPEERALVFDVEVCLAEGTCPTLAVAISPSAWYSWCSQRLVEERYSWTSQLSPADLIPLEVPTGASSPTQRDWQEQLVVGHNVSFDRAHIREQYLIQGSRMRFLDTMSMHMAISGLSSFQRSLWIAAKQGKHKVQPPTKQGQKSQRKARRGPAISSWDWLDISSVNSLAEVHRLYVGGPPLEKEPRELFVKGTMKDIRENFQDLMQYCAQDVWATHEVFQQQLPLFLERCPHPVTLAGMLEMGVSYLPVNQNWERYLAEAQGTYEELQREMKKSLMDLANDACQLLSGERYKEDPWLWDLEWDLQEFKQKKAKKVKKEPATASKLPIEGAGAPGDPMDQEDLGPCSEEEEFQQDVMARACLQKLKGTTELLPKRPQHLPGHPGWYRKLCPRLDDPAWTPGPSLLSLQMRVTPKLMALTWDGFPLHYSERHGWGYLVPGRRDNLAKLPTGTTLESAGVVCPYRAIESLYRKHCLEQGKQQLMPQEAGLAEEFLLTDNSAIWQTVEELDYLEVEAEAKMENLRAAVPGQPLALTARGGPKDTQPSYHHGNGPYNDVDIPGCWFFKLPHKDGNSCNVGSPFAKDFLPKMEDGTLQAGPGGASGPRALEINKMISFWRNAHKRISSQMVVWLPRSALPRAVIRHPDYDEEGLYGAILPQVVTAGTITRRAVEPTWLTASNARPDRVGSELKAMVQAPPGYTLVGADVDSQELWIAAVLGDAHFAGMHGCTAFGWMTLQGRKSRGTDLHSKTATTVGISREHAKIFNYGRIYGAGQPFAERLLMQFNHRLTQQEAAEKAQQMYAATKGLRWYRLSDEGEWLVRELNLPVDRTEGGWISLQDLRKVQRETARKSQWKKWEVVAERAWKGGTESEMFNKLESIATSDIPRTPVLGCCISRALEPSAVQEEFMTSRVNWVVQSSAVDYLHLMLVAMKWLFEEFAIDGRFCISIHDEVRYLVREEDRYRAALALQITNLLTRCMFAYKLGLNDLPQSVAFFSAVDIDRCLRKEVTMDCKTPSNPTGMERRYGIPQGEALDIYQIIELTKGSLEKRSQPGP
OUTCOME MEASURE: IC50

>>> reported_measurement("Nc1ccn([C@@H]2CS[C@H](COP(=O)(O)OP(=O)(O)OP(=O)(O)O)O2)c(=O)n1 [3TC-TP]")
"43100 nM"
>>> reported_measurement("Nc1nc(=O)n([C@H]2C=C[C@@H](COP(=O)(O)OP(=O)(O)OP(=O)(O)O)O2)cc1F [β-D-D4FC-TP]")
"740 nM"
>>> reported_measurement("Nc1ccn([C@H]2CC[C@@H](COP(=O)(O)OP(=O)(O)OP(=O)(O)O)O2)c(=O)n1 [ddC-TP]")
"70 nM"
